# targetDesc: recombinant human 17β-HSD2 (Homo sapiens, UniProt P37059)
# Construct: made in house; host or cells: Sf9 insect cells (baculovirus, Bac to Bac Expression System)
# Sequence (P37059 whole entry): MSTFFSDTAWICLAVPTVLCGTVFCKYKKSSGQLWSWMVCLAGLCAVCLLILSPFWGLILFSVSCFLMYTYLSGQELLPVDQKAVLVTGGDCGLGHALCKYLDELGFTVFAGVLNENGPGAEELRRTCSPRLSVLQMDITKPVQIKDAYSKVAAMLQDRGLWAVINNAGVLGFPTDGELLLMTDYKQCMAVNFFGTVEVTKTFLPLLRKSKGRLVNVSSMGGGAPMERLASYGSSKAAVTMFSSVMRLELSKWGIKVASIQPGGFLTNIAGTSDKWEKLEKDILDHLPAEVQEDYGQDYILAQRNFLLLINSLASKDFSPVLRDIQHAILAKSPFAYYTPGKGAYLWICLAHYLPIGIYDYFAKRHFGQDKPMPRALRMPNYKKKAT
# assayComment: Recombinant 17β-HSD2 assay (HPLC, 3H-estradiol conversion)
# Format: biochemical
# measurementContext: 100 nM compound; 50 nM estradiol, 1 mM β-NAD; read-out: Inhibition of rec. 17β-HSD2
Give MET when the value for inhibition at 0.1 µM is at least 6%. Give NOT MET when it is less.

Past entries and their recorded results:
C[C@]12CC[C@@H]3c4ccc(B(O)O)cc4CC[C@H]3[C@@H]1[C@H](CCC(=O)NC1CCCCC1)CC2=O = NOT MET
C[C@]12CC[C@@H]3c4ccc(B(O)O)cc4CC[C@H]3[C@@H]1[C@@H](CCCC(=O)NC1CCCCC1)CC2(F)F = MET

For this compound, is measured inhibition at 0.1 µM 6% or higher? "C[C@]12CC[C@@H]3c4ccc(B(O)O)cc4CC[C@H]3[C@@H]1[C@H](CCC(=O)NCc1ccc3c(c1)OCO3)CC2(F)F"
MET

For this compound, is measured inhibition at 0.1 µM 6% or higher? "C[C@]12CC[C@@H]3c4ccc(B(O)O)cc4CC[C@H]3[C@@H]1[C@H](CCC(=O)NCc1ccc3c(c1)OCO3)CC2=O"
NOT MET

For this compound, is measured inhibition at 0.1 µM 6% or higher? "C[C@]12CC[C@@H]3c4ccc(Nc5ccc6c(c5)S(=O)(=O)C=C6)cc4CC[C@H]3[C@@H]1[C@@H](CCCC(=O)N1CCOCC1)CC2=O"
NOT MET

For this compound, is measured inhibition at 0.1 µM 6% or higher? "C[C@]12CC[C@@H]3c4ccc(B(O)O)cc4CC[C@H]3[C@@H]1[C@@H](CCCC(=O)NCc1ccc3c(c1)OCO3)CC2(F)F"
MET

###

# targetDesc: recombinant human 17β-HSD2 (Homo sapiens, UniProt P37059)
# Construct: made in house; host or cells: Sf9 insect cells (baculovirus, Bac to Bac Expression System)
# assayComment: Recombinant 17β-HSD2 assay (HPLC, 3H-estradiol conversion)
# Type: biochemical
# measurementContext: 100 nM compound; 50 nM estradiol, 1 mM β-NAD; read-out: Inhibition of rec. 17β-HSD2
quantity: inhibition at 0.1 µM (%)
Reply with just the number (in %).

C[C@]12CC[C@@H]3c4ccc(B(O)O)cc4CC[C@H]3[C@@H]1[C@@H](CCCC(=O)NCc1cccnc1)CC2(F)F = 5
Cc1cccc2c(CCNC(=O)CC[C@@H]3CC(F)(F)[C@@]4(C)CC[C@@H]5c6ccc(B(O)O)cc6CC[C@H]5[C@H]34)c[nH]c12 = 10
C[C@]12CC[C@@H]3c4ccc(B(O)O)cc4CC[C@H]3[C@@H]1[C@H](CCC(=O)Nc1ccc3c(c1)OCO3)CC2(F)F = 4.9
C[C@]12CC[C@@H]3c4ccc(B(O)O)cc4CC[C@H]3[C@@H]1[C@@H](CCCC(=O)NCc1ccccc1)CC2(F)F = 7.6

Data point: "Cc1cnc(NC(=O)CC[C@@H]2CC(=O)[C@@]3(C)CC[C@@H]4c5ccc(C(N)=O)cc5CC[C@H]4[C@H]23)s1" ; inhibition at 0.1 µM = -1.8

Data point: "C[C@]12CC[C@@H]3c4ccc(B(O)O)cc4CC[C@H]3[C@@H]1[C@@H](CCCC(=O)Nc1ccc3c(c1)OCO3)CC2=O" ; inhibition at 0.1 µM = -7.6

Hey, just so you know, these numbers are from patent US8288367B2.
